assay method text: folding stability dG unfold from chymotrypsin proteolysis; higher = more stable
readout name: folding stability dG unfold (kcal/mol)
Please respond with the number in kcal/mol and leave the unit unwritten.

For the sequence SAGGSAGGSAGMLNTTVTVSIPTPEGKVETITIPPGVPLEEAKAKVAEPRPGAEITEIVRVSAGGSAGGSAG [r3_60_JUSTAS] , what folding stability dG unfold is on record?
0.764

Another sequence to look at: SAGGSEKVTIELEFRNPETGELIATVKIELERLPNGEIKAKIEFTNLPEGVELSEEMKKLLEELLKSAGGSA [r2_7_TrROS_Hall]
2.93

Another sequence to look at: SAGGNMWMVRVKIDDGKTFMITSPEDIEEYLKKKLGPNYKIKEVEWHRMPPPNGPPMPMHEFEIEVPSAGGS [r16_408_TrROS]
2.02

Another sequence to look at: SAGGSAGGSADDEIVAEFTFTVPGTGVKKVKVKVFKDPNSDEYWVRVEGKWLPVSNPEEALESAGGSAGGSA [r18_67_TrMRF]
2.4

Another sequence to look at: SAGGSAGGSAEELLKAFPNAEIVKYDPETKKFIIKLKDGSYLVVNLETGEIKLVSKEELEKASAGGSAGGSA [r18_381_TrROS_Hall]
3.94

Another sequence to look at: SAGGSAGGSIEELAKKTNIIEVKVTEFPNPKFKKAFIVYKNPKENKYKKGIYIFYDKKDGKLESAGGSAGGS [r12_133_TrMRF]
0.544

Another sequence to look at: SAGGDATIVLTDFPEDDPEARIRTARNLYRELKAAGPPLRINILTDTPLGREVADYLESEGIEVGLGSAGGS [r16_450_TrMRF]
-0.206

Another sequence to look at: SAGGSAGGSGNPTPPAEPTVTLSTSDWNEVKERVEKAGLEYETFPGEGKVTLPASDFEKIKEESAGGSAGGS [r12_325_JUSTAS]
0.356

Another sequence to look at: SAGGMTLEITFPPNVKKVRVEFDEETNEVKVEVEEVDGELVIRVEVPPGQELSEEELERLKKLLEELSAGGS [r16_359_TrROS_Hall]
1.79

Another sequence to look at: SAGGSVEEIAERLAKELAPPDERVEVEVEEIVTDPVVGKIKEVKIKATIYPPDGTTRTVEYTIPYDELSAGG [r13_215_JUSTAS]
0.704

Another sequence to look at: SASLTPVGPGPDSVVTADPSTGKLYRLEPADGRLTVTTTTFAPGPAAPAPTTTTLPLSPEEAAALRALLSAG [r14_245_JUSTAS]
-0.304

Another sequence to look at: SAGGSAGGSMSTVSTVTHPDGTPLTVTTTPLPDGTVLATYSAPDGTVVATFDVSTGTTVVVPLSAGGSAGGS [r20_159_JUSTAS]
1.5

Another sequence to look at: SAGGSAGGSEKPPVKTITLVLKVDDAEEAAKALAEELGVEITRIEVTRDENGKVYVRITIRLPSAGGSAGGS [r12_359_TrROS_Hall]
3.99

Another sequence to look at: SAGGTAEEIVEALKEAGIPVLSIEPNSDGTYTITVGGPDGTPFTIEISSANPADLAALKEAIPEEVSSAGGS [r16_821_TrMRF]
4.01

Another sequence to look at: SAGGNRIMFIVNSPEEAERFANFIRKHLPPGMNLEIEIEPFPLKDNVPPDDPDYKNQPVYMVHITIPSAGGS [r16_795_TrROS]
4.13

Another sequence to look at: SAGSSPEEIAERLREEAERTEKLPDGSEVRVSVSVDVEVLPNGTVRLTIPRSYPETGVVTTETVTIPVASAG [r5_397_JUSTAS]
-0.579

Another sequence to look at: SAMPVFTFPVEIPGPEYTPEEIVAILKEAAAKLNLPVDEEVIRELAEKALAEGTTVADIIEEILKRGLGSAG [r14_364_JUSTAS]
1.88

Another sequence to look at: SAGGSAGGSAGGPNHYVMATETIEFEFEIRTRNEDGKPQEIKIKFTLTVIRMFPLPPGDPSAGGSAGGSAGG [r7_926_TrROS]
5.03

Another sequence to look at: SAGGSAGGSAFVWNPDTGTFIQLDPNDGTIEVFEIENDNDGKLEPIGTVEVDPDDPDKGTITSAGGSAGGSA [r18_448_TrROS]
1.23

Another sequence to look at: KLKFKVKIKNPKTNETVEVEVELNEDGTVTVKVNGKLIAKFKIVAKPKPKVETKKVKDANGNEKTYKKVKFS [r1_496_TrROS_Hall]
2.41

Another sequence to look at: SAGGEGKEDKKIKVLFINVPVDKPDLLLKLAKEIIEKKEYDIIIVDHPENYKALKEAFPEYDIPIILGSAGG [r13_353_TrMRF]
3.67

Another sequence to look at: SAGGSAGGSPVLIPVKTPEEIKKFLEKASSDAKFKVFNNKGEWKEVSKNEISVTPEEQFILVYSAGGSAGGS [r12_907_TrMRF]
0.662

Another sequence to look at: SAGGPISKKKIVTAPVSYDPATGKYTITLTYPDSTYTIPSDLSDLEEALKRAKEKLEKETGIPVETVLGSAG [r5_251_JUSTAS]
1

Another sequence to look at: SAGGSAGGLPPGQSIEIFIFSMFPTPNGNLNLEMIQITIRIRPVVRKPDNGGEKYVPPDDPDLASAGGSAGG [r6_405_TrROS]
4.36

Another sequence to look at: SAGGFIVVPIKAKSLEEALEKAREIAAALGIPGTLEDPRVDLDDFLKNYKPDTEVRVYVRHPDGVIDELSAG [r5_503_TrMRF]
0.223

Another sequence to look at: SMKPVKITEVTEDTITVTVTVYDKETNRLVKVTAEITFDKETKKLTIKVKVEVLPPLSEEQRKALEEALKSA [r9_1038_TrROS_Hall]
2.94

Another sequence to look at: SAGGSAGGSAGGMMKITIEVDGKKIEITLPPGAELKFDKEKKEIYIRNKKTNEILKLKIKSAGGSAGGSAGG [r7_7_TrROS_Hall]
2.35

====

assay method text: folding stability dG unfold from trypsin proteolysis; higher = more stable
Cut-off 2 kcal/mol on folding stability dG unfold, inclusive. At or above means condition met; below means condition not met.

Reported folding stability dG unfold at or above 2 kcal/mol? SAGGSATKELVLEIAEEIAPRFQKEGWPIKRVTVKVVRTPDGQVTIPVRIRFPDGKPIMQWNITIPSAGGSA [r15_232_TrROS]
condition not met

Another sequence to look at: SAGGSAPPEWRTIMIPMKPDDVDNAIEELRNELPPGRNINIHLQDPEPGRYFMITIRGNKIEIHFMSAGGSA [r15_257_TrROS]
condition met

Another sequence to look at: DTVTIVVEGMSEEEVLEKARAAAEELAKEGKTVEIVVKLSPEALKKAGVEKVEEVEDEETGLLVIKVEVKPS [r1_467_TrROS_Hall]
condition not met

Another sequence to look at: SAGGMLILIKVKNKKYEIEINGKKIEVEEKDGYLIIKVSPEALEALKKIPNLENIEEIKIFPEEELKSAGGS [r8_493_TrROS_Hall]
condition met

Another sequence to look at: SAGGSAGGSPVTVETSSQTSTVPLPTGPTVTLVTNTTTTTRPVPLSTPRSSSTTTVTTTVTVVSSAGGSAGG [r6_224_JUSTAS]
condition not met

Another sequence to look at: SAGGSAGGSKTILIVLPPGEELTPEQLKALAAALPPDATLTILVYDPETKELHVFTFKLPEGLSAGGSAGGS [r12_913_TrROS_Hall]
condition met

Another sequence to look at: SAGGLPGLSAEELARRLAERLREALAAAGYTVEIELTVEITVTDEDGRTRTFTFTLRIRVEPPPPPPSAGGS [r16_550_TrROS_Hall]
condition met

====

For each record, write down the corresponding folding stability dG unfold.
assay method text: folding stability dG unfold from trypsin proteolysis; higher = more stable

For the sequence KTKTIVINAKDLTEEQLRELLKKLGVSEEDVEVSEDGKTVVIKIDGVTIVIVASPPKPVVKPDDPEAKKAAS [r1_57_TrROS_Hall] , what folding stability dG unfold is on record?
1.27 kcal/mol

Another sequence to look at: MSEKTFVVEVKVESPEEAEELIEKLKEKLSGEKYEVKIEKVEVSPDGTVKVHITFKPGVPEEFIKKALEEES [r1_485_TrMRF]
2.28 kcal/mol

Another sequence to look at: SAGGSAIWIPADEIRELAKEPGLEVEKEPQPDGMLHFTIKNPKNGKRITIVVWDPENGWWHIMPIPSAGGSA [r15_442_TrROS]
0.947 kcal/mol

Another sequence to look at: SVYIPIPMGDPEGLKEMLDFIKNILEKNQENGYENVPIPIHMPNGGPFEFPIDPNSTLEEQLDQIEKFIESA [r9_127_TrROS]
1.56 kcal/mol

Another sequence to look at: SGMTVTPVTHPNGQTLTLTFDPETGTVTVNRSPAISLEEVKAALEALIPSDRSVTVSTLPDGTAAVTLTASA [r9_933_JUSTAS]
1.36 kcal/mol

Another sequence to look at: PFDIRINVEYERDPDNGKEYIEVSIMVWDGNPEQARDIAKEILEEHFGWKIKDVKVERFPDMYMITFKIRLS [r1_337_TrROS]
3.46 kcal/mol

Another sequence to look at: SAGGSAGGSAGSSMTSTVTEVSTLSNGGTVVTTTTTSYYPSTGTTTTSTTTTTFTDGKAVSAGGSAGGSAGG [r11_337_JUSTAS]
1.08 kcal/mol
